- measured_target: T1, FTM-NN protein (membrane anchorless form of the Long fusion protein, 70 kDa) (human respiratory syncytial virus, …, UniProt P12568 26-524)
- T1 construct: domain: membrane anchorless form of the fusion protein
- experiment_description: SPR (Biacore), FTM-NN immobilised
Listing: Kd of selected binders
Just the number in nM, nothing appended.

Solved cases below.
binder	Kd (nM)
RSVNC23 (VHH) VHH: EVQLVESGGGLVQPGGSLRLSCAASGRTFSSIAMGWFRQAPGKEREFVAAISWSRGRTFYADSVKGRFIISRDDAANTAYLQMNSLKPEDTAVYYCAVDTASWNSGSFIYDWAYDHWGQGTQVTVSS	0.92
LG191E4 (VHH) VHH: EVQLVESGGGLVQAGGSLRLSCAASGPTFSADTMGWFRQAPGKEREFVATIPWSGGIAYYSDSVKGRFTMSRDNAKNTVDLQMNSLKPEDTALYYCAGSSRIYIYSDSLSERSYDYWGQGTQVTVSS	0.27

**Q:** Could you please provide reported Kd for RSVNC41 (VHH) VHH: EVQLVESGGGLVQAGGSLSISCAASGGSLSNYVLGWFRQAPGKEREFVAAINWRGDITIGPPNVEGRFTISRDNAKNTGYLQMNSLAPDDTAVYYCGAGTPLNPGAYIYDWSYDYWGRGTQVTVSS ? Thanks!
**A:** 8.1
